assay.system: 5-HT6R (Homo sapiens, UniProt P50406)
Sequence (P50406 whole entry): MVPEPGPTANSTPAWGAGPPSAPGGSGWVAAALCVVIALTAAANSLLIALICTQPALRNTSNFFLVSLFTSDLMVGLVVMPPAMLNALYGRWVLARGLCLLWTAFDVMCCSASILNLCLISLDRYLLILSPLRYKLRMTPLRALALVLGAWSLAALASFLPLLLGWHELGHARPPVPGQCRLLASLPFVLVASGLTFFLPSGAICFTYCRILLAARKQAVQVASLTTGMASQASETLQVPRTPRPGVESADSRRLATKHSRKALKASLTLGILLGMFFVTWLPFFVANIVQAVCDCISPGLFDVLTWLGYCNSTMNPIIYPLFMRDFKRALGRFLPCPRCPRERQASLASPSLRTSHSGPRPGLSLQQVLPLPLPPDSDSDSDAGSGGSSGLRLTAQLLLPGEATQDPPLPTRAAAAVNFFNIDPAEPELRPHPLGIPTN
measurement.description: Radioligand binding assay, [3H]-LSD displacement
run.parameters: pKi 5-HT6, Table 1
value.kind: Ki (nM)
Reply numerically in nM, unit not repeated.

Here is how some compounds turned out for Ki.
Clc1cccc2c(CNCCc3c[nH]c4ccccc34)c[nH]c12 363
Fc1cccc2c(CNCCc3c[nH]c4ccccc34)c[nH]c12 316
c1ccc(COc2cccc3c(CNCCc4c[nH]c5ccccc45)c[nH]c23)cc1 302
Fc1ccc2c(CNCCc3c[nH]c4ccccc34)c[nH]c2c1 224

Please look at the following compound next.
stdin: So what's the measured Ki for this one? Brc1ccc2c(CNCCc3c[nH]c4ccccc34)c[nH]c2c1
stdout: 102
